system: K4 kissing-loop RNA reporter; experiment: apparent KD of K4 kissing-loop reporter; higher = weaker reporter binding; settings: Eterna round: R107; input ligand: none;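 note: bound reporter read as fluorescence of individual clusters on recovered sequencing chips by microscopy, with normalized cluster intensities fitted with a binding model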
PROPERTY: apparent KD of K4 kissing-loop reporter (nM)
I only need the number, in nM, no unit after it.

Below are worked cases with known answers.
INSERT INTO assay_data (sequence, system_under_test, property, test_value) VALUES
  ('CUCGAGUGAUGUUCGAUUAUUUAUACAGAUACCAGUGAAUUUUAACACCCUUGGCAGCUGGUUGUAUCUUUGUUUUUUACACAAG [JR_ExcTheophyA_Sub006]', 'K4 kissing-loop RNA reporter', 'apparent KD of K4 kissing-loop reporter', 118),
  ('GAGGCCAAACGGAGUGAUGUUUCGUAUGAUACCAGCAGCGAAAGCUGCCCUUGGCAGCAUGCCACGGCCUCGGCAGGAAACUGCC', 'K4 kissing-loop RNA reporter', 'apparent KD of K4 kissing-loop reporter', 358),
  ('AAGUCAUAGGCAGGAUAUGCAUUGUAGUAAGGCAAUAUAUACGUAUAGAGUGAUGUUUUGUACCAGGCAGAAGGGCUACAUCAGU [FMN B Excl V11 (+G)]', 'K4 kissing-loop RNA reporter', 'apparent KD of K4 kissing-loop reporter', 645),
  ('AAUAAAAUCACGGCCGCCACUGAUUUUUUUAUUAGGAGUGAUGUUCCUAUGACUAUAUUAUUUAACAGGACCGGGUGAAUAUUUA [JR_SSTryptoB_Sub023]', 'K4 kissing-loop RNA reporter', 'apparent KD of K4 kissing-loop reporter', 87.4),
  ('UGACAUUGCUCAGAUACCAGACUUGAGGAACACCCAAGUGCCAAAUACGUACAAAUAAAAGUCCCUUGGCAGCUGAGCAAUGUCU [TheoBX 12]', 'K4 kissing-loop RNA reporter', 'apparent KD of K4 kissing-loop reporter', 48.5);

# context switch: different sequence, same apparent KD of K4 kissing-loop reporter
[ask] Provide one value: measured apparent KD of K4 kissing-loop reporter of CGCAGUGAUGUUGCGAGUAGAUACAGGGAAGGAGCGCCGUAGUAGGCAGGUAGGUCGCCCACGCAGUGAUGUUGCGUCAUAGGGU [Exclusion Arginine A GF 5]
[reply] 97.1

====

system: MS2 coat protein; experiment: apparent KD of MS2 coat protein; designed switch direction (-1 OFF switch, 1 ON switch): -1; higher = weaker reporter binding; details: input ligand: none
Below, each entry is listed with its recorded apparent KD of MS2 coat protein.
I only need the number, in nM, no unit after it.

INSERT INTO measurements (sequence, property, test_value) VALUES
  ('UAACAUGUACAAGGAUAUCAGCACGAUUAGUGCUGAGAAGGUGUAACAUGAGGAUCACCCAUGUAGAUCAUUAAUUAAUUAAUU [ENG1/9-B1] (Eterna round: R96, puzzle: Exclusion NG 1)', 'apparent KD of MS2 coat protein', 56.6),
  ('AGUUCUAACACGUUGGUGUUAGUACCAUAAGCUUGUGAUACAUGAGGAUCACCCAUGUCCUCAUAAGCUCGUCUUAU [salish99_TOv2_r3_1001] (Eterna round: R96, puzzle: Sensor v3, turn-off variant 2)', 'apparent KD of MS2 coat protein', 27.3),
  ('CACCUGAACACAGGAUAUCAUACAUGAGGAUCACCCAUGUAAUAAAUGAGAAUUUCGAAUGUAAUUGAGAAGGGUGGAUAAGGC [Ostricism 90 - Jieux - Exclusion NG 2] (Eterna round: R96, puzzle: Exclusion NG 2)', 'apparent KD of MS2 coat protein', 41.1),
  ('GCUGGUCGAGGAUAUACAUGAGGAUCACCCAUGUAGAUCAACCAGCGAUAGCUGGAAUGUAGAAGGCGACCAGC [E3/5-A1] (Eterna round: R97, puzzle: Exclusion 3)', 'apparent KD of MS2 coat protein', 22.9);

# context switch: different sequence, same apparent KD of MS2 coat protein
[ask] Provide one value: measured apparent KD of MS2 coat protein of AAGGGACAUGAGGAUCACCCAUGUGAGGAUAUGCUAUGGAAAAUAAAAAAUAAACAUAGCAGAAGGCAUAAAAA [Mat - Exclusion 1 - Eli mod - D37] (Eterna round: R96, puzzle: Exclusion 1)
[reply] 99.2

====

test system: MS2 coat protein; assay: apparent KD of MS2 coat protein; designed switch direction (-1 OFF switch, 1 ON switch): 1; higher = weaker reporter binding; details: input ligand: FMN 200 uM
Each entry gets 0.0 if its apparent KD of MS2 coat protein stays under 60 nM, and 1.0 if its apparent KD of MS2 coat protein is 60 nM or above.

The following sequences have reported results that may help.
INSERT INTO assay_data (sequence, label) VALUES
  ('UUAAUUAAUUAAUUAUACAUGAGGAUCACCCAUGUAAGUGAUCAGGAUAUCAGCUCGUUUAGAGCUGAGAAGGGAUACAUGUAA [SSNG3/13-A3] (Eterna round: R96, puzzle: Same State NG 3)', 1.0),
  ('GGUAGGUUACUACCAAACUACAUGAGGAUCACCCAUGUGUGGAAGGAUAUGGUACCUAUUUGGUACCAGAAGGUCCAAUUAAUU [Fiskers NG3ss - 5] (Eterna round: R96, puzzle: Same State NG 3)', 1.0),
  ('UUUACUUUCAUAGGAUAUCAUGCGAAAAUUGCGUGAGAAGGGUGAAUACUGUCUUUCUAAGAGUACAUGAGGAUCACCCAUGUA [SameState NG1 #64] (Eterna round: R96, puzzle: Same State NG 1)', 0.0);

Shifting focus to the sequence that follows.
[ask] Is the recorded value of apparent KD of MS2 coat protein equal to or greater than 60 nM for this sequence? GCAGGACGGUAAAACAUCUCACAUGAGGAUCACCCAUGUCGUGAGGAUAUGGAUCCUAAUUGGAUCCAGAAGGCACGGUCCUGC [Fiskers NG3ss - 29] (Eterna round: R96, puzzle: Same State NG 3)
[reply] 0.0

====

Below, each entry is listed with its recorded apparent KD of MS2 coat protein.
tested on: MS2 coat protein; test: apparent KD of MS2 coat protein; designed switch direction (-1 OFF switch, 1 ON switch): -1; higher = weaker reporter binding; conditions: input ligand: FMN 200 uM
I only need the number, in nM, no unit after it.

INSERT INTO results (sequence, endpoint_unit, test_value) VALUES
  ('CGAUGAGGAGUGAGGAUAUCGUGUUCGAAAGAACGUGAGAAGGCACAUGAGGAUCACCCAUGUGAUUCUUAUCG [Omei Ex4B A19] (Eterna round: R97, puzzle: Brourd''s mod of Exclusion 4)', 'nM', 77),
  ('GGUUCGAAAGUGAGGAUAUGCUGGUCCUUGGAUCAGCAGAAGGCACAUGAGGAUCACCCAUGUGGUAACGGACC [Mat - Exclusion 4 - Eli Mod - D37] (Eterna round: R97, puzzle: Brourd''s mod of Exclusion 4)', 'nM', 122),
  ('AUCUUGUCAGGAUAUCUUACAUAACAAUCGUAGUUACCAUUGGAGAAGGGACAUGAGGAUCACCCAUGUUAGCC [tap-tap-tappy42] (Eterna round: R97, puzzle: Exclusion 4)', 'nM', 20.8);

# context switch: different sequence, same apparent KD of MS2 coat protein
[ask] Provide one value: measured apparent KD of MS2 coat protein of ACGCAUUGCCAAAGGUAAUGCGUUACAUGAGGAUCACCCAUGUAGGAUAUGGUAGGCAAAGCUUACCAGAAGGACAUGAUAAUU [Mat - Exclusion NG 3 - Mod of JL - D7] (Eterna round: R96, puzzle: Exclusion NG 3)
[reply] 219

====

Below, each entry is listed with its recorded apparent KD of MS2 coat protein.
system: MS2 coat protein; assay: apparent KD of MS2 coat protein; higher = weaker reporter binding; conditions: Eterna round: R107; input ligand: tryptophan 2.4 mM
I only need the number, in nM, no unit after it.

Below are worked cases with known answers.
INSERT INTO measurements (sequence, test_value) VALUES
  ('UAUGCACAUGAGGAUCACCCAUGUAUGGAAGGAGCGGUGAAUAAACCAGGUAGGUCGCCAUUGUGAGGGUCAUCUAUGUAAUCGU [Exclusion - Arginine A (Freestyle 4)]', 91.8),
  ('CCAUGGCUAGGAAGGAGCGCAUACUUCACAUGAGGAUCACCCAUGUCGAGACGUGAGUCAGUGCAGGUAGGUCGCCUAGCCAUGG [Same State - Arginine B (Freestyle 30)]', 18.6),
  ('CCGACGAUGACUAUGGGUCAGGAGUGCGUACGAGGACCGGUACGGCCGCCACUCGAGGAGUGGGACAUGAGGAUCACCCAUGUGG [#19 Exclusion Tryptophan A]', 47.8),
  ('UUGUAUAUGCGAAGGAGCGGGAAAUAUAUAUAUAUAAUCCUAACAUGAGGAUCACCCAUGUCCCAGGUAGGUCGCGCAUAUGUGG [12.G]', 54.9),
  ('AAUAACAUGAGGAUCACCCAUGUAAAAGAUACCAGAUGCAUGAUGAUCCCUUGGCAGCUUAACGCUGAUUGAUUACAAUCAGCGA', 26.4);

# context switch: different sequence, same apparent KD of MS2 coat protein
[ask] Provide one value: measured apparent KD of MS2 coat protein of UUUGAUAGGACAGAUACCAGCGUGUUGUUGAACAUGAGGAUCACCCAUGUAGUGAUCAAGCGCCCUUGGCAGCUGGUUUGUUAGG [7.M]
[reply] 302
